The reported measurements were obtained from the supplement of paper PMC10567573.

B1: SPOPL (parent)
chain: YTGRAPNLDKMADNLLAAADKYAL

# Variants of: B1
# ASSAY_REMARKS: protein stability index of a GFP-peptide fusion (GPS, HEK-293T) (PSI 1-6); higher = more stable;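 also: lentivirally expressed fusions sorted by FACS into six bins by GFP to DsRed ratio, PSI derived from sequencing read proportions per bin multiplied by bin number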
# APPLIED_CONDITIONS: c terminus: a fixed tail appended
Can you tell me protein stability index for the items I'm about to list?
API note: the answer field is a bare number with no unit suffix.

Provide one value: measured protein stability index of A5Y 1.41

Provide one value: measured protein stability index of D20Q 1.53

Provide one value: measured protein stability index of K21A 2.04

Provide one value: measured protein stability index of R4N 2.09

Provide one value: measured protein stability index of K10Q 1.75

Provide one value: measured protein stability index of K10P 2.42

Provide one value: measured protein stability index of L8D 3

Provide one value: measured protein stability index of L8K 2.16

Provide one value: measured protein stability index of N7Q 2.39

Provide one value: measured protein stability index of G3Y 2.82

Provide one value: measured protein stability index of A5D 3.19

Provide one value: measured protein stability index of L24H 2.49

Provide one value: measured protein stability index of L8M 1.8

Provide one value: measured protein stability index of D20E 1.61

Provide one value: measured protein stability index of A19E 2.33

Provide one value: measured protein stability index of Y1P 3.65

Provide one value: measured protein stability index of A18P 2.18
